System: 5HT3 serotonin receptor
Test: Serotonin (5HT3) binding assay ([3H]GR65630, NIE-115 neuroblastoma cells)
Details: read-out: Ki characterizing the 5HT3 assay; assay characterization
pKi: −log10 of the molar value.
measuredEndpoint: pKi

[[record]]
smilesstr = "CN1[C@@H]2CC[C@H]1C[C@@H](OC(=O)c1cc(Cl)cc(Cl)c1)C2"
testedon = "5HT3 serotonin receptor"
measuredendpoint = "pKi"
measuredresult = 9.52


###

Biological target: D2 receptor (Sus scrofa)
Construct: pig anterior pituitary tissue
Sequence (F1SM69 1-443): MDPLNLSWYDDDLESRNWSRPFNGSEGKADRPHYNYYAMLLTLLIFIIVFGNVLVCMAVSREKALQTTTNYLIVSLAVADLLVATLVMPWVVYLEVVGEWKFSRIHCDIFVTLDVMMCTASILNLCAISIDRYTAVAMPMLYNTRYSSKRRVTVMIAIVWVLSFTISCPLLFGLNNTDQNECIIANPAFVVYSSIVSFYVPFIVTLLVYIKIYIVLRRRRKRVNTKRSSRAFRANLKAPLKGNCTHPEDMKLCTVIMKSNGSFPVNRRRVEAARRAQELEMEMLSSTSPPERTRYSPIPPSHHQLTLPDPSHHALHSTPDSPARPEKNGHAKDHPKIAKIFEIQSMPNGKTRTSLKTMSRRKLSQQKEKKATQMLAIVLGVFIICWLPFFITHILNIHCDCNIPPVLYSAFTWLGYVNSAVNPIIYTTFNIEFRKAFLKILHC
Assay: D2:D4 comparative binding assay, D2 (pig anterior pituitary)
measuredEndpoint: Ki (nM)

[[record]]
compound = "Oc1ccc2c(c1O)CC[C@@H]1[C@@H]2CCCN1CCc1ccccc1 (relative stereo) [trans-9]"
measuredresult = 6.9

[[record]]
compound = "Oc1ccc2c(c1O)CC[C@@H]1[C@H]2CCCN1CCc1ccccc1 (relative stereo) [cis-9]"
measuredresult = 122


###

Target: D4 receptor (Homo sapiens, UniProt P21917, DEL265-296)
Sequence (P21917 other isoform, or with tags, fused parts or gaps DEL265-296): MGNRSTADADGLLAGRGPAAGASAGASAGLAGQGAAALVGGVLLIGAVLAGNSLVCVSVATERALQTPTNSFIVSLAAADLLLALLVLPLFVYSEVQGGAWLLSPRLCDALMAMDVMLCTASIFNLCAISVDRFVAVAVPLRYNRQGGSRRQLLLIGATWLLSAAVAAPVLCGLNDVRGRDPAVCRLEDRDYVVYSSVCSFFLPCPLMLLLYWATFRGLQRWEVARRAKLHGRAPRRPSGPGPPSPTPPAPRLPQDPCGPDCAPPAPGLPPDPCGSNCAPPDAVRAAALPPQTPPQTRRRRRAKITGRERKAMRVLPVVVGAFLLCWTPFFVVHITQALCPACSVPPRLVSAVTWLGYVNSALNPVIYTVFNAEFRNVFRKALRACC
Assay: D2:D4 comparative binding assay, D4 (COS-7 cells)
pKi: −log10 of the molar value.
measuredEndpoint: pKi

[[record]]
compound = "Oc1ccc2c(c1O)CC[C@@H]1[C@@H]2CCCN1CCc1ccccc1 (relative stereo) [trans-9]"
testedon = "D4 receptor (Homo sapiens, UniProt P21917, DEL265-296)"
measuredendpoint = "pKi"
measuredresult = 8.62

[[record]]
compound = "Oc1ccc2c(c1O)CC[C@@H]1[C@H]2CCCN1CCc1ccccc1 (relative stereo) [cis-9]"
testedon = "D4 receptor (Homo sapiens, UniProt P21917, DEL265-296)"
measuredendpoint = "pKi"
measuredresult = 8.05


###

Recorded pKi values for a group of compounds are listed next.
Molecular target: 5HT1A serotonin receptor (Bos taurus, UniProt F6Q2H9)
Construct: bovine hippocampus; from tissue; host or cells: bovine hippocampus
Sequence (F6Q2H9 1-422): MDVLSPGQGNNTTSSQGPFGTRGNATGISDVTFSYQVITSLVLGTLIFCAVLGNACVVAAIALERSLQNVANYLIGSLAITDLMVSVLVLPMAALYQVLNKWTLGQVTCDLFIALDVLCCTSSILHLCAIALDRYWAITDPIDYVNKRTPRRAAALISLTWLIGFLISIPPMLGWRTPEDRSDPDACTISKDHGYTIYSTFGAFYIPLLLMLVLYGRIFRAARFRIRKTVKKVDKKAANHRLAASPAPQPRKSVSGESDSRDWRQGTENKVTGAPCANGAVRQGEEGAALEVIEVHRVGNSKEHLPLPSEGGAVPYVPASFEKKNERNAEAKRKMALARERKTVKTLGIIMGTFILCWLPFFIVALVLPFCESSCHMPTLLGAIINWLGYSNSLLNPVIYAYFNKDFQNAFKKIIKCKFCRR
Assay: Serotonin (5HT1A) binding assay ([3H]-8-OH-DPAT)
Set-up: species or system bovine
Settings: Table III; bovine hippocampus; read-out: 5-HT1A receptor binding affinity Ki
pKi: −log10 of the molar value.
measuredEndpoint: pKi

[[record]]
compound = "Oc1cccc2c1CC[C@@H]1[C@@H]2CCCN1CCc1cccs1 (relative stereo) [trans-31]"
testedon = "5HT1A serotonin receptor (Bos taurus, UniProt F6Q2H9)"
measuredresult = 7.44

[[record]]
compound = "Oc1ccc2c(c1O)CC[C@@H]1[C@@H]2CCCN1CCc1cccs1 (relative stereo) [trans-33]"
testedon = "5HT1A serotonin receptor (Bos taurus, UniProt F6Q2H9)"
measuredresult = 6.72


###

Target: alpha2-adrenergic receptor
Assay: Alpha2-adrenergic (non-selective) binding assay ([3H]RX 781094)
Parameters: species or system rat
Details: Table III; rat cortical membranes; read-out: α2 receptor binding affinity Ki
measuredEndpoint: Ki (nM)

[[record]]
compound = "Oc1cccc2c1CC[C@@H]1[C@@H]2CCCN1CCc1ccccc1 (single isomer, unassigned) [trans-(-)-25]"
measuredendpoint = "Ki"
measuredresult = 2.1

[[record]]
compound = "Oc1cccc2c1CC[C@H]1[C@H]2CCCN1CCc1ccccc1 (relative stereo) [trans-25]"
measuredendpoint = "Ki"
measuredresult = 0.22

[[record]]
compound = "Oc1ccc2c(c1O)CC[C@H]1[C@H]2CCCN1CCc1ccccc1 (single isomer, unassigned) [trans-(+)-9]"
measuredendpoint = "Ki"
measuredresult = 550

[[record]]
compound = "Oc1ccc2c(c1O)CC[C@@H]1[C@@H]2CCCN1CCc1cccs1 (relative stereo) [trans-33]"
measuredendpoint = "Ki"
measuredresult = 19


###

Biological target: 5HT1 serotonin receptor
Experiment: Serotonin (5HT1) binding assay
Settings: read-out: 5-HT1 receptor binding affinity Ki; Table III; rat cortical membranes
pKi: −log10 of the molar value.
Recorded pKi values for a group of compounds are listed next.
measuredEndpoint: pKi

[[record]]
compound = "Oc1ccc2c(c1O)CC[C@@H]1[C@@H]2CCCN1CCc1ccccc1 (relative stereo) [trans-9]"
measuredendpoint = "pKi"
measuredresult = 6.82

[[record]]
compound = "Oc1ccc2c(c1O)CC[C@@H]1[C@@H]2CCCN1CCc1cccs1 (relative stereo) [trans-33]"
measuredendpoint = "pKi"
measuredresult = 5.74

[[record]]
compound = "Oc1cccc2c1CC[C@@H]1[C@@H]2CCCN1CCc1ccccc1 (single isomer, unassigned) [trans-(-)-25]"
measuredendpoint = "pKi"
measuredresult = 6.62

[[record]]
compound = "Oc1cccc2c1CC[C@H]1[C@H]2CCCN1CCc1ccccc1 (relative stereo) [trans-25]"
measuredendpoint = "pKi"
measuredresult = 6.33

[[record]]
compound = "Oc1ccc2c(c1O)CC[C@H]1[C@H]2CCCN1CCc1ccccc1 (single isomer, unassigned) [trans-(-)-9]"
measuredendpoint = "pKi"
measuredresult = 5.48


FYI, the data here is from patent US6262064A.
